ASSAY NOTES: folding enthalpy; higher = less favourable; fluorescence melt of hairpins on a sequencing array, two-state fit
MEASUREMENT CONDITIONS: sodium 0.088 M
# key: entry, value: folding enthalpy
READOUT TYPE: folding enthalpy (kcal/mol)

> print(dat)
                          record.sequence  unit.tag  assay.value
 1    GTCACCCGAAAGGGGAC (((.(((....))))))  kcal/mol        -20.1
 2  AGTAGCTGAAAAGTTACT ((((.((....)).))))  kcal/mol        -20.2
 3    GTGCTCGAAAGAGACAC ((((((....))).)))  kcal/mol        -22.4
 4    GCATCACGAAAGTGTGC (((.(((....))))))  kcal/mol        -39.2
 5  GCAGTCGGAAACGACCGC ((.((((....)))).))  kcal/mol        -27.3
 6  GCCGTACGAAAGTAGGGC (((.(((....))).)))  kcal/mol        -40.8
 7  GTAGGCGGAAACGCTTAC (((.(((....))).)))  kcal/mol        -23.1
 8  GCCTAGCGAAAGCTGTGC ((..(((....)))..))  kcal/mol          -13
 9              GCGGACGACCGC ((((....))))  kcal/mol        -24.6
10  GCGATGCCGAAAGGCCGC (((..(((....))))))  kcal/mol          -18
11  GTACACGGAAACGTGCAC ((.((((....)))).))  kcal/mol        -17.9
12  GCTCCCGAAAGGGAAAGC ((((((....)))..)))  kcal/mol        -16.6

====

ASSAY NOTES: melting temperature; fluorescence melt of hairpins on a sequencing array, two-state fit, raised by 9.35 °C to match UV melts
MEASUREMENT CONDITIONS: sodium 0.088 M
Categories are assigned from the measured Tm using these intervals: range A = under 30 °C, range B = from 30 °C up to 50 °C, range C = 50 °C and over

> print(dat)
                          record.sequence  label.value
 1  GCGACGCGAAAGCTTCGC ((((.((....)).))))      range C
 2      GATCACCACTGTGATC ((((((....))))))      range C
 3  GCTATGCGAAAGCCCAGC (((..((....))..)))      range A
 4      GATCACTGAAGTGATC ((((((....))))))      range C
 5  GAACCACGAAAGTGCTTC (((.(((....))).)))      range B
 6  GCCTAAGGAAACTTAGAC (.(((((....))))).)      range A
 7  GCTGAGCGAAAGCGCGGC ((.(.((....)).).))      range C
 8  GCGTACGAAAGTAACCGC ((((((....)))..)))      range B
 9  GGACGCGGAAACACGCCC ((.((.(....).)).))      range B
10  GGATATTCGAAAGAATCC (((..(((....))))))      range A
11  GCCTAGCGAAAGCTGTGC ((..(((....)))..))      range B
12  GCCGTTGGAAACAACAGC ((.((((....)))).))      range B
13    GTAAGCGAAAGCTATAC ((((((....))).)))      range B
14  GTCGTCGGAAACGACGGC (.(((((....))))).)      range C
15  GGTTTCGAAAGAAGAACC ((((((....)))..)))      range B
16      GATCTCACGGGAGATC ((((((....))))))      range C
17          TGACAGAAATGTCA (((((....)))))      range B
18      GATCGTGAGAACGATC ((((((....))))))      range C
19  GCTCGACCGAAAGGTAGC (((..(((....))))))      range B
20  GATTCCGAAAGGAGCATC ((((((....)))..)))      range A
21      GATCTTCCAAAAGATC ((((((....))))))      range B
22  GCATCGCGAAAGCCTTGC (((..((....))..)))      range B

====

ASSAY NOTES: melting temperature; fluorescence melt of hairpins on a sequencing array, two-state fit, raised by 9.35 °C to match UV melts
MEASUREMENT CONDITIONS: sodium 0.088 M
// class 0 strictly below 50 °C in Tm; class 1 otherwise

> print(dat)
                          record.sequence  label.value
 1      CGCGGAATGATCCGCG ((((((....))))))      class 1
 2      GATCGTAAATACGATC ((((((....))))))      class 1
 3  GACAACGAAAGTTAAGTC ((((((....)))..)))      class 0
 4  GTCGGTACGAAAGTAGAC (((..(((....))))))      class 0
 5  GGTGTCGGAAACGACATC (.(((((....))))).)      class 1
 6  GTAGGTCGAAAGACGTAC (((.(((....))).)))      class 1
 7  GTTTACCCGAAAGGGAAC (((..(((....))))))      class 0
 8  GACGCGGGAAACTGCGTC (((((.(....).)))))      class 1
 9  GAGGACCGAAAGGTACTC (((.(((....))).)))      class 1
10                GCGGTATCCGC ((((...))))      class 1

====

ASSAY NOTES: folding enthalpy; higher = less favourable; fluorescence melt of hairpins on a sequencing array, two-state fit
MEASUREMENT CONDITIONS: sodium 0.088 M
# key: entry, value: folding enthalpy
READOUT TYPE: folding enthalpy (kcal/mol)

> print(dat)
                          record.sequence  unit.tag  assay.value
 1  GTTCGTGGAAACACGAAC (((((((....)))))))  kcal/mol        -39.4
 2  GTATGTGGAAACGCATAC (((((.(....).)))))  kcal/mol        -29.7
 3  GCCCTTTCGAAAGAAGGC (((..(((....))))))  kcal/mol        -33.3
 4  GGTCTGGCGAAAGCCACC (((..(((....))))))  kcal/mol        -7.45
 5  GACCGCGGAAACGCGACC (..((((....))))..)  kcal/mol        -7.67
 6          GCAATGAAAATTGC (((((....)))))  kcal/mol        -22.7
 7  GTGGTAGGAAACTATCAC (((.(((....))).)))  kcal/mol        -28.4
 8  GGGGCCGCGAAAGCGCCC (((..(((....))))))  kcal/mol          -11
 9          AGGACGAAAGTCCT (((((....)))))  kcal/mol        -20.3
10      GATCGATCATTCGATC ((((((....))))))  kcal/mol        -39.5
11      GATCCAACAATGGATC ((((((....))))))  kcal/mol        -32.7
12  GGAACCTCGAAAGAGTCC (((..(((....))))))  kcal/mol        -11.3
13                GCGGCTTCCGC ((((...))))  kcal/mol        -25.9
14  GTGGGCGAAAGCCTGCAC ((((((....)))..)))  kcal/mol        -12.4
15  GAGCCCGAAAGGGCACTC ((((((....)))..)))  kcal/mol          -11
16      GATCCCTATGGGGATC ((((((....))))))  kcal/mol        -31.3
17  GAGTTTGGAAACAAACCC (.(((((....))))).)  kcal/mol        -18.5
18  GGTATACGAAAGTACACC (((.(((....))).)))  kcal/mol        -28.7
19      GATCGTTGTGACGATC ((((((....))))))  kcal/mol          -41
20    GCAACACGAAAGTGTGC (((.(((....))))))  kcal/mol          -19
21  GTAACACGAAAGTGCTAC (((.(((....))).)))  kcal/mol        -28.4
22  GTTAGCGAAAGCTAAAAC ((((((....)))..)))  kcal/mol        -13.2
23        GATCAGGAACTGATC ((((((...))))))  kcal/mol        -39.4
24      GATCACGCCGGTGATC ((((((....))))))  kcal/mol        -38.7
25  GCTATCGAAAGATATAGC ((((((....)))..)))  kcal/mol        -25.1
26        GATCCTTCGAGGATC ((((((...))))))  kcal/mol        -28.7
